Molecular target: histamine H3 receptor (Homo sapiens)
Construct: clone 3H3; membranes
Sequence (Q9Y5N1 whole entry): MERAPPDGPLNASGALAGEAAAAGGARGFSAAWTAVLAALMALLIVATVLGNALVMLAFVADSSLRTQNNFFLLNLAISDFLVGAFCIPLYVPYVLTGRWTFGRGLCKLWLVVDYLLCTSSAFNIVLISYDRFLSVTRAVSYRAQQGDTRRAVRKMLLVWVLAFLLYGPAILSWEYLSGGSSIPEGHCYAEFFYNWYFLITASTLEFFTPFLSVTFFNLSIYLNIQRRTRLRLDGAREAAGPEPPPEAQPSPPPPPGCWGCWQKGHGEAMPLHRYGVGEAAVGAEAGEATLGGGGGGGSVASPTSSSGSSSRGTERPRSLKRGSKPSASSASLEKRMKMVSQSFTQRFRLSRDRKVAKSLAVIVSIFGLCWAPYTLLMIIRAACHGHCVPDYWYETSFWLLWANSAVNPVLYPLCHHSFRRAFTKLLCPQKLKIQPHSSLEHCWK
Assay: Histamine H3 functional antagonist assay ([35S]GTPγS, SPA, membranes of CHO K1 cells expressing the receptor)
Conditions: histamine-stimulated GTPγS binding, membranes with human H3
pKi: −log10 of the molar value. Counter-ions that a name gives are not always drawn.
Below, each entry is listed with its recorded pKi.

These recorded examples may help you get a feel for the data.
CN(C)C(=O)c1ccc(N2CCC(OC3CCN(C4CCC4)CC3)CC2)cn1 [Example E31, hydrochloride]    ≥ 9.00
CCC(=O)c1ccc(N2CCC(OC3CCN(C4CCC4)CC3)CC2)cc1 [Example E90]    ≥ 9.00
Cc1nc(-c2ccc(N3CCC(OC4CCN(C5CCC5)CC4)CC3)cc2)no1 [Example E25]    ≥ 9.00
CC(C)N1CCC(OC2CCN(c3ccc(C(=O)NC4CCCC4)nc3)CC2)CC1 [Example E45]    ≥ 9.00
CC(=O)c1ccc(N2CCC(OC3CCN(CC4CC4)CC3)CC2)cc1 [Example E103]    > 8.00

# ---- query compound ----
GET /values?readout=pKi&system=histamine H3 receptor (Homo sapiens)&item= Cc1ncc(-c2ccc(N3CCC(OC4CCN(C(C)C)CC4)CC3)cc2)o1 [Example E20]
> 8.00
